These measurements were taken from patent US6063777A.

Assay: Water solubility
Assay type: physicochemical
Settings: water; aqueous solution; read-out: high concentration solution (water solubility)
Parameter: solubility (mg/mL)
State just the number; it will be interpreted in mg/mL.

Req: Given the entry C=Cc1c(C)c2cc3nc(cc4[nH]c(cc5nc(cc1[nH]2)C(C)=C5CCC(=O)NC(CC(=O)O)C(=O)O)c(CCC(=O)NC(CC(=O)O)C(=O)O)c4C)C(C)(O)C3=CC=NO (stereo not shown) [Compound (I)] , report its measured solubility.
Resp: 50
